Test system: SK-MEL-5
Test: NCI tumour cell line growth inhibition, 48 h
Calls of active or inactive are those of the source. Rule as the data show it: active = GI50 up to about 1.1 µM and inactive = higher.
Hello, when you answer, please use one of the following outcomes: active, inactive

Past entries and their recorded results:
> print(dat)
                                   compound  experimental.target     group
1         O=C1Nc2ccc(Br)cc2/C1=N/S(=O)(=O)O             SK-MEL-5  inactive
2  COc1cc2c(c(OC)c1OC)-c1ccc(SC)cc1C(O)CC2 (stereo not drawn)             SK-MEL-5    active
3  CCOC(=O)NC(=O)c1cn(CCOC(=O)NCCCCCCNC(=O)OCCn2cc(C(=O)NC(=O)OCC)c(=O)[nH]c2=O)c(=O)[nH]c1=O             SK-MEL-5  inactive

Call for entry Cc1cc2c(=O)cc(-c3ccc(O)cc3)oc2c(C(=O)O)c1C :
inactive

Call for entry C#CCn1ncc2c(SCc3ccccc3)ncnc21 :
inactive

Call for entry CCOCCOC(=O)C1CCC(=O)N1CN(C(C)=O)c1cc(OC)ccc1OC (stereo not drawn) :
inactive

Call for entry CC(C)(C)OC(=O)CN1C(=O)CC1CC(=O)c1ccccc1 (stereo not drawn) :
inactive

Call for entry [N-]=[N+]=Nc1ccccc1-[n+]1noc([O-])c1Br :
inactive

Call for entry CN(C)C(=S)C(Cl)(c1ccccc1)c1ccccc1 :
inactive

---

Catalogue of molecules with associated GI50
Test system: LOX IMVI
Experiment: NCI tumour cell line growth inhibition, 48 h
Active and inactive are the calls of the source. Rule as the data show it: active = GI50 up to about 1.1 µM and inactive = higher.

> print(dat)
                                   molecule  observed.property             reading
1  CC(=O)c1cccn1/C=C(\OC(=O)OC(C)(C)C)c1ccc[nH]1               GI50  62.4 µM (inactive)

Okay, now this molecule:
For COc1cc(S(=O)(=O)Nc2ccc(-c3csc(N4C(=O)CSC4c4cccc(Oc5ccccc5)c4)n3)cc2)ccc1Cl (configuration not stated) on LOX IMVI, measured GI50 was 32.7 µM (inactive)

---

Test system: SK-MEL-5
Test: NCI tumour cell line growth inhibition, 48 h
Calls of active or inactive are those of the source. No stated cut-off is given here; in the data, active = GI50 up to about 1.1 µM and inactive = higher.
Hello, when you answer, please use one of the following outcomes: YES = active, NO = inactive

Past entries and their recorded results:
> print(dat)
                         structure.notation  group
1  COC(=O)[C@H](CCSC)NC(=O)N[C@H](C)c1ccccc1     NO
2  N#Cc1c(N)nc(SCc2ccccc2)c(C#N)c1-c1ccc(O)cc1     NO
3  Cc1cc(C2(c3cc(C)c(O)c4ncccc34)OC(=O)c3ccccc32)c2cccnc2c1O    YES

Moving on to another compound below.
Call for entry O=C(CCCC(=O)Nc1ccc(Cl)cc1Cl)CC(=O)c1ccc2ccccc2c1 :
NO

---

Tested on: LOX IMVI
Test: NCI tumour cell line growth inhibition, 48 h
Activity calls are given as the source filed them. Rule as the data show it: active = GI50 up to about 1.1 µM and inactive = higher.
OBSERVED PROPERTY: GI50

The following compounds have reported results that may help.
> print(dat)
                                   compound  observed.property              reading
1  Cc1c(C(=O)/C=C/C=C/c2ccccc2)[n+]([O-])c2ccccc2[n+]1[O-]               GI50   31.1 µM (inactive)
2          CNc1ccc(Cl)cc1C(=O)N1CCC[C@H]1CO               GI50  > 100 µM (inactive)
3             C1=Cc2nccc3cc4c(c(c23)N1)OCO4               GI50   8.61 µM (inactive)
4  O=C(NN1C(=O)C(Cl)C1c1c(O)ccc2ccccc12)c1ccccc1O (stereo not given)               GI50  > 100 µM (inactive)
5  COc1ccc2c(c1)c(Cc1c(C)n(C)c3ccc(OC)cc13)c(C)n2C               GI50  > 100 µM (inactive)
6  O=C1C(/C=C/c2ccc(Cl)cc2)=NNC2N1N=C1NC(=O)C3(NN12)c1ccccc1-c1ccccc13 (stereo not given)               GI50  > 100 µM (inactive)

For OC(c1ccccc1)(c1ccccc1)c1ccccn1 on LOX IMVI, measured GI50 was > 100 µM (inactive)

For CC(C)C1=C2CCC3(C)C(CCC4C5C6OCC5(CCC6(C)C)CCC43C)C2(C)CC1 (stereo not given) on LOX IMVI, measured GI50 was 14.4 µM (inactive)

For O=C(CCCCCCCCCCc1ccccc1)C1=C(O)CCCC1=O on LOX IMVI, measured GI50 was 26.2 µM (inactive)

For CCOC(=O)N1CCC(N[C@@H]2c3cc4c(cc3[C@@H](c3cc(OC)c(O)c(OC)c3)[C@H]3C(=O)OC[C@@H]32)OCO4)CC1 on LOX IMVI, measured GI50 was 1.26 µM (inactive)

For CCOC(=O)C/N=c1\nc(SC)sc2c(C(=O)OCC)nc(Sc3ccccc3)n12 on LOX IMVI, measured GI50 was 6.76 µM (inactive)

For Cc1ccc(S(=O)(=O)n2cc(-c3cnc(N)c(Br)n3)c3ccccc32)cc1 on LOX IMVI, measured GI50 was 2.94 µM (inactive)

For O=C1/C(=C/c2ccc(Cl)cc2)CCC1CCN1CCOCC1 (stereo not given) on LOX IMVI, measured GI50 was 39.8 µM (inactive)

For O=c1oc2ccccc2c(O)c1C1c2c(c3ccccc3oc2=O)Oc2c1c(=O)oc1ccccc21 on LOX IMVI, measured GI50 was 38.5 µM (inactive)

For CC(C)(C)C1=CC(=C(P(=O)(O)O)P(=O)(O)O)C=C(C(C)(C)C)C1=O on LOX IMVI, measured GI50 was > 50 µM (inactive)
